# Tested on: D2 SHORT and D4.4 type dopamine receptors
# TEST SUMMARY: D4/D2 binding ratio from competitive binding to D4.4 and D2 short receptors
# Parameters: species or system human
# MEASUREMENT PARAMETERS: ratio of concentrations required to inhibit 50% of radioligand binding for each receptor
RECORDED ENDPOINT: D4/D2 Selectivity

Memo: O=c1[nH]c(CN2CC=C(c3ccccc3)CC2)nc2ccccc12 , reported D4/D2 Selectivity: ~85

Entry COc1ccccc1N1CCN(Cc2nc3ccccc3c(=O)[nH]2)CC1 — recorded D4/D2 Selectivity = >70

The molecule listed as O=c1[nH]c(CN2CCN(c3ccccc3F)CC2)nc2ccccc12 shows D4/D2 Selectivity equal to >100

Reported D4/D2 Selectivity for O=c1cc(CN2CC=C(c3ccccc3)CC2)oc2ccccc12 was ~10

Just so you know, measured D4/D2 Selectivity for O=c1[nH]c(CN2CCN(c3ccccc3Cl)CC2)nc2ccccc12 came out at >100

// D4/D2 Selectivity lookup, molecule = N#Cc1ccccc1N1CCN(Cc2nc3ccccc3c(=O)[nH]2)CC1 , result: >500

Briefly, D4/D2 Selectivity measured for O=c1cc(CN2CC=C(c3ccccc3)CC2)nc2ccccn12 : ~10

For record CCOc1ccccc1N1CCN(Cc2nc3ccccc3c(=O)[nH]2)CC1 the listed D4/D2 Selectivity is >100

Record summary for O=c1[nH]c(CN2CCN(c3cccc(O)c3)CC2)nc2ccccc12 : reported D4/D2 Selectivity = ~50

====

Assignment: determine reported pIC50 for the given compounds.
// pIC50 is dimensionless: -log10 of concentration (M)

Result for O=c1[nH]c(CN2CCN(c3ncccn3)CC2)nc2cc(Cl)ccc12 , tested on PDE5 partially purified from human platelets (Homo sapiens, UniProt O76074), pIC50: 5.70

Readout pIC50 for O=c1c2ccccc2nc(CN2CCN(c3ncccn3)CC2)n1Cc1ccccc1 , test system PDE5 partially purified from human platelets (Homo sapiens, UniProt O76074), was 4.68

// pIC50 (PDE5 partially purified from human platelets (Homo sapiens, UniProt O76074)) for O=c1[nH]c(CN2CC=C(c3ccccn3)CC2)nc2cc(Cl)ccc12 = 4.57

====

# TESTED TARGET: Human recombinant dopamine D4.4 receptors expressed in CHO-K1 cells (Homo sapiens, UniProt P21917)
# Construct: expressed in transfected cells; host or cells: CHO-K1 cells (membranes)
# Sequence (P21917 1-419): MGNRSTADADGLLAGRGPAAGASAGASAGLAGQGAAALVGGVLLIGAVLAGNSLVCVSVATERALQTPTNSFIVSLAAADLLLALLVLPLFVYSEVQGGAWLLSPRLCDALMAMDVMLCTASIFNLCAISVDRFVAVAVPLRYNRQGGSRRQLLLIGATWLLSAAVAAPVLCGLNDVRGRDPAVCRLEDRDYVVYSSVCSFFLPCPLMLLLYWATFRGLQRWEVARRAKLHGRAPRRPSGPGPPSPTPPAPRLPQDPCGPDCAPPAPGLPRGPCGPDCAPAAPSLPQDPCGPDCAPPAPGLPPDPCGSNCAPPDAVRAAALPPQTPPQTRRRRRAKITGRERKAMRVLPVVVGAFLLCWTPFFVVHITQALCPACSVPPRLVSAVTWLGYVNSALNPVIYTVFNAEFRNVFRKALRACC
# TEST SUMMARY: GTPgammaS Cellular Assay (agonist response)
# Format: biochemical
# MEASUREMENT PARAMETERS: relative to the 1 μM dopamine response; tested at 5, 1, 0.1, 0.01 μM (concentration of tabulated value not given); na = no activity; read-out: D4.4(h) GTPgammaS^35 Cellular Assay, Agonist Response, %
RECORDED ENDPOINT: Emax (%)
Provide only the numeric value, understood in %.

# compound O=c1[nH]c(CN2CCN(c3cccc(O)c3)CC2)nc2ccccc12 ; its Emax = 42

Recorded result, O=c1[nH]c(CN2CCN(c3ccccc3Cl)CC2)nc2ccccc12 , Emax: 54

Record summary for COc1ccccc1N1CCN(Cc2nc3ccccc3c(=O)[nH]2)CC1 : reported Emax = 44

What the record says about CCOc1ccccc1N1CCN(Cc2nc3ccccc3c(=O)[nH]2)CC1 : Emax is 49

// sample O=c1cc(CN2CC=C(c3ccccc3)CC2)oc2ccccc12 , its Emax was 75

====

Assign inhibition at 5 µM to each entry below.
# TESTED TARGET: D4.4 receptor (Homo sapiens, UniProt P21917)
# Construct: expressed in transfected cells; host or cells: CHO cells
# TEST SUMMARY: Competitive binding to D4.4 dopamine receptor ([3H]-YM-09151-2 radioligand)
# MEASUREMENT PARAMETERS: 5 mcM compound; human recombinant D4.4 in CHO cells; na = no activity
Output spec: scalar in %, unitless text.

Field inhibition at 5 µM (entry CCOc1ccccc1N1CCN(Cc2nc3ccccc3c(=O)[nH]2)CC1 ) reads 93

Query O=c1[nH]c2ccccc2nc1CN1CC=C(c2ccccc2)CC1 yields inhibition at 5 µM of 62

Note to self: inhibition at 5 µM recorded for O=c1[nH]c(CN2CCN(c3ncccn3)CC2)nc2cc(Cl)ccc12 was 70

compound COc1ccccc1C1=CCN(Cc2nc3cc(Cl)ccc3c(=O)[nH]2)CC1 , inhibition at 5 µM observed: 95

Recorded result, COc1ccccc1C1=CCN(Cc2nc3ccccc3c(=O)[nH]2)CC1 , inhibition at 5 µM: 74

Recorded inhibition at 5 µM (compound O=c1[nH]c(CN2CCC=C(c3ccccn3)C2)nc2ccccc12 ): 12

Value of measured inhibition at 5 µM for the entry O=c1[nH]c2ccccc2nc1CN1CCN(c2ncccn2)CC1 : 29

Notebook: O=c1[nH]c(CN2CCN(c3ccccn3)CC2)nc2nc[nH]c12 , inhibition at 5 µM read as 8

For record O=c1[nH]c(CN2CC=C(c3ccccn3)CC2)nc2ccccc12 the listed inhibition at 5 µM is 66

====

# TESTED TARGET: D4.4 receptor (Homo sapiens)
# Construct: expressed in transfected cells; host or cells: CHO cells
# TEST SUMMARY: Competitive binding to D4.4 dopamine receptor ([3H]-YM-09151-2 radioligand)
# MEASUREMENT PARAMETERS: 5 mcM compound; human recombinant D4.4 in CHO cells; na = no activity
RECORDED ENDPOINT: inhibition at 5 µM (%)
Express your answer in %, writing the number without its unit.

Entry O=c1[nH]c(CN2CCN(c3nccs3)CC2)nc2ccccc12 — recorded inhibition at 5 µM = 18

Entry O=c1[nH]c(CN2CCN(c3ncccn3)CC2)nc2nc[nH]c12 ; inhibition at 5 µM = 33

# molecule O=c1[nH]c(CN2CCC(c3ccccc3)CC2)nc2ccccc12 ; its inhibition at 5 µM = 88

Kindly note the recorded inhibition at 5 µM for O=c1[nH]c(CN2CCN(c3cccc(O)c3)CC2)nc2cccc(F)c12 , which is 82

According to the records, this molecule O=c1cc(CN2CC=C(c3ccccc3)CC2)nc2ccccn12 displays inhibition at 5 µM of 59

inhibition at 5 µM measured on CCn1c(=O)c2[nH]c(CN3CCN(c4cccc(O)c4)CC3)nc2n(CC)c1=O = 54

Value of measured inhibition at 5 µM for the entry CCCOc1cccnc1N1CCN(Cc2nc3ccccc3c(=O)[nH]2)CC1 : 81

In plain terms, O=c1[nH]c2ccccc2nc1CN1CCN(c2cccc(O)c2)CC1 has a documented inhibition at 5 µM of 62

molecule CCn1c(=O)c2[nH]c(CN3CC=C(c4ccccc4)CC3)nc2n(CC)c1=O , inhibition at 5 µM observed: 25

The measured inhibition at 5 µM associated with Cc1cccc2nc(CN3CCN(c4cccc(O)c4)CC3)[nH]c(=O)c12 reads 89

Lab book: inhibition at 5 µM of O=c1[nH]c(CN2CCN(c3ccccc3F)CC2)nc2ccccc12 noted as 59

For reference, reported inhibition at 5 µM for O=c1[nH]c(CN2CCN(c3ncccc3OCc3ccccc3)CC2)nc2ccccc12 stands at 60

The recorded inhibition at 5 µM for entry O=c1[nH]c(CN2CCN(c3cccc(O)c3)CC2)nc2ccccc12 equals 91

Lab book: inhibition at 5 µM of COc1cc2nc(CN3CCN(c4cccc(O)c4)CC3)[nH]c(=O)c2cc1OC noted as 91

Lab note: measured inhibition at 5 µM of COc1ccccc1N1CCN(Cc2nc3cc(Cl)ccc3c(=O)[nH]2)CC1 was 65

Recorded inhibition at 5 µM (molecule O=c1[nH]c(CN2CC=C(c3ccccc3)CC2)nc2ccccc12 ): 73

// N#Cc1ccccc1N1CCN(Cc2nc3ccccc3[nH]c2=O)CC1 : inhibition at 5 µM value = 84

Per the record, CCCn1cnc2nc(CN3CCN(c4cccc(O)c4)CC3)[nH]c(=O)c21 has inhibition at 5 µM of 11

The molecule identified as CCOc1cccnc1N1CCN(Cc2nc3ccccc3c(=O)[nH]2)CC1 registered its inhibition at 5 µM at 86

O=c1[nH]c(CN2CCN(c3cccc(O)c3)CC2)nc2cc(Cl)ccc12 has a reported inhibition at 5 µM of 90

Value of inhibition at 5 µM reported for the molecule O=c1[nH]c(CN2CC=C(c3ccccc3)CC2)nc2cc(Cl)ccc12 is 63

Item: O=c1[nH]c(CN2CCN(c3ccccc3Cl)CC2)nc2ccccc12 | inhibition at 5 µM: 57

Record summary for COc1ccccc1N1CCN(Cc2nc3ccccc3c(=O)[nH]2)CC1 : reported inhibition at 5 µM = 88

Briefly, inhibition at 5 µM measured for CCOc1ccccc1N1CCN(Cc2nc3cc(Cl)ccc3c(=O)[nH]2)CC1 : 46

So, O=c1cc(CN2CC=C(c3ccccc3)CC2)oc2ccccc12 ? Its inhibition at 5 µM was 72

// O=c1[nH]c(CN2CCN(c3ncccn3)CC2)nc2ccccc12 : inhibition at 5 µM value = 13

Noted for O=c1[nH]c(CN2CCCC(c3ccccn3)C2)nc2ccccc12 (stereo not shown) : its inhibition at 5 µM reads 57

The molecule listed as N#Cc1ccccc1N1CCN(Cc2nc3ccccc3c(=O)[nH]2)CC1 has a reported inhibition at 5 µM of 52
